Details: in mesitylene, 333.15 K
measuredMetric: solubility (mole fraction)

mol: CC(C)(C)c1ccc2c(c1)C(=O)c1ccccc1C2=O
recordedMeasurement: 0.604

---

Conditions: in mesitylene, 313.15 K
measuredMetric: solubility (mole fraction)

mol: CC(C)(C)c1ccc2c(c1)C(=O)c1ccccc1C2=O
recordedMeasurement: 0.345

---

Settings: in trioctyl phosphate, 303.15 K
measuredMetric: solubility (mole fraction)

mol: CC(C)(C)c1ccc2c(c1)C(=O)c1ccccc1C2=O
measuredMetric: solubility (mole fraction)
recordedMeasurement: 0.169

---

Conditions: in trioctyl phosphate, 333.15 K
measuredMetric: solubility (mole fraction)

mol: CC(C)(C)c1ccc2c(c1)C(=O)c1ccccc1C2=O
measuredMetric: solubility (mole fraction)
recordedMeasurement: 0.39
